Target: UniProt Q8NE63
Sequence (Q8NE63 1-616): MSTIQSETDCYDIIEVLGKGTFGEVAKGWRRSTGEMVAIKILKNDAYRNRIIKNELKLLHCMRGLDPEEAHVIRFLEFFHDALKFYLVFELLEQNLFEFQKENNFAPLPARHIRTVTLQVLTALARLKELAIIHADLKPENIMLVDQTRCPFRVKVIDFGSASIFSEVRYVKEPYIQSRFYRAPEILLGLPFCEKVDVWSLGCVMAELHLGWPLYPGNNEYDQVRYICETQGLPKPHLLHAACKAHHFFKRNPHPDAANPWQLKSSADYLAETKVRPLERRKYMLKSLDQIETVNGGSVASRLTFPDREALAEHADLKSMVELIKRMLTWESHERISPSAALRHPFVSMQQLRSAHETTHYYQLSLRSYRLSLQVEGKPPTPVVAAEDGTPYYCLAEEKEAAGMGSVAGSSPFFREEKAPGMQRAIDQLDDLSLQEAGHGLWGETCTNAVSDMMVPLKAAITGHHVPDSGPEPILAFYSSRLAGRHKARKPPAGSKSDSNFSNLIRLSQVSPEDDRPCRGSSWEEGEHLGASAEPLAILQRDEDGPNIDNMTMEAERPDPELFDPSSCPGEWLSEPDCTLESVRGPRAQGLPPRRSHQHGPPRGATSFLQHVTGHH
Experiment: SelectScreen kinase specificity survey
Conditions: estimated, abridged dose response curve, read-out: Kinase inhibitory activity EC50
measurement label: EC50 (nM)
Answers are plain numbers, in nM.

In [3]: df
Out[3]:
                                   molecule  measurement_target  measurement_label  unit_abbrev  measured
0  CN(C)CCCNc1ccc2ncn3c4ccc5[nH]ncc5c4c(=O)c1c23      UniProt Q8NE63               EC50           nM      1310

Next:
Please look at this molecule and report its EC50: CCN(CC)CCNc1ccc2ncn3c4ccc(O)cc4c(=O)c1c23 [Symadex, reference compound] 1820

---

Biological target: MAPKAPK5 (PRAK) (Homo sapiens)
Sequence (Q8IW41 whole entry): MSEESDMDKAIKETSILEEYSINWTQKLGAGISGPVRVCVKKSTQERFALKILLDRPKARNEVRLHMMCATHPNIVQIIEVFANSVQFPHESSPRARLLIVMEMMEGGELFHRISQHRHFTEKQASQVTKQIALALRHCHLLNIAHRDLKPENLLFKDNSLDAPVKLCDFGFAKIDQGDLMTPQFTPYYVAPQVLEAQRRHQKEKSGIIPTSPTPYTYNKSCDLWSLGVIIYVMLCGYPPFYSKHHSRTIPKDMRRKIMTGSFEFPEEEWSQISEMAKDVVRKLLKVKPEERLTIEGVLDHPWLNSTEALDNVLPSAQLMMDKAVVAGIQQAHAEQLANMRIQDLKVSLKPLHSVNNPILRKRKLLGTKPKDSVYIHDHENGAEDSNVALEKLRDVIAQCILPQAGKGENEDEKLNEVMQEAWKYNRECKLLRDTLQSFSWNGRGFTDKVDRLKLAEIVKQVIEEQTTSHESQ
Test: SelectScreen kinase specificity survey
Conditions: estimated, abridged dose response curve, read-out: Kinase inhibitory activity EC50
Consider the following compounds; for each one, report its EC50.

>>> df
                                   compound  measured
0  CN(C)CCCNc1ccc2ncn3c4ccc5[nH]ncc5c4c(=O)c1c23    > 5 µM

Tell me its EC50 on MAPKAPK5 (PRAK) (Homo sapiens): CCN(CC)CCNc1ccc2ncn3c4ccc(O)cc4c(=O)c1c23 [Symadex, reference compound] > 5 µM

---

Target: FLT3 (Homo sapiens, UniProt P36888)
Construct: purchased Invitrogen (SelectScreen platform)
Sequence (P36888 27-993): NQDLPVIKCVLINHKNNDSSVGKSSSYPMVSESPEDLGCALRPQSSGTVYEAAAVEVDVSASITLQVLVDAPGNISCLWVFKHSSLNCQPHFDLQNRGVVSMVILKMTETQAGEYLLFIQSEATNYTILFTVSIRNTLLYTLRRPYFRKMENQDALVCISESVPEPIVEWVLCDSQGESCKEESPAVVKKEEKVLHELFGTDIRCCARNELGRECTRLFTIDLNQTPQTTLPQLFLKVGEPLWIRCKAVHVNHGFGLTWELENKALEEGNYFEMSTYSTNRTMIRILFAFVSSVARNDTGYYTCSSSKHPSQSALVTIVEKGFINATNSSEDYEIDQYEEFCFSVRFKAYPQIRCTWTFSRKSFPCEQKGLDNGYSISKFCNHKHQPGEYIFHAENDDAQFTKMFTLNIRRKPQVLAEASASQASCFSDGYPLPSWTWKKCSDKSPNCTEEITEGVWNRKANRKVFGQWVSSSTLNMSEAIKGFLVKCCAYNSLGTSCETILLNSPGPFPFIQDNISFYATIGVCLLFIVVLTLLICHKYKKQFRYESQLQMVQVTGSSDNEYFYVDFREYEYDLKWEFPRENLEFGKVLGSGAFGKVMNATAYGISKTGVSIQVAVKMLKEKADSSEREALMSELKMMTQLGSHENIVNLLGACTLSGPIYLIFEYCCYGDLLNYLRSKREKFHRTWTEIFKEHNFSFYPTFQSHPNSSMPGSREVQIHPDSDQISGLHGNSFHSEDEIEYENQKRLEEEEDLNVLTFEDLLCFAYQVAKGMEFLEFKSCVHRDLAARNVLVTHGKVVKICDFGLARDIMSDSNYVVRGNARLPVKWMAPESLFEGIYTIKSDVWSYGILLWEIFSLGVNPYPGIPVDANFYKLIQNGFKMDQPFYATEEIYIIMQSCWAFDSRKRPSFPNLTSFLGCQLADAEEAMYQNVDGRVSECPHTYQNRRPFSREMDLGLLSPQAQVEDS
Experiment: SelectScreen FLT3 kinase dose response assay
Assay type: biochemical
Conditions: dose response, 4 parameter Hill equation; ATP 100 micromolar; read-out: FLT3 Inhibition EC50
So I've got a bunch of compounds here, and I need their pEC50 values.
Answers are plain numbers, as −log10 of the molar value.

>>> print(df.to_string())
                                   compound  measured
0  CN(C)CCCCCNc1ccc2ncn3c4ccc5[nH]ncc5c4c(=O)c1c23 [(III)]      8.40
1  CN(C)CCCNc1ccc2ncn3c4ccc5[nH]ncc5c4c(=O)c1c23 [Compound (IV)]      7.85
2  CN(C)CCNc1ccc2ncn3c4ccc5[nH]ncc5c4c(=O)c1c23 [(XII)]      7.96
3  CCN(CC)CCNc1ccc2ncn3c4ccc(O)cc4c(=O)c1c23 [Symadex, reference compound]      7.62
4  O=c1c2c(F)ccc3ncn(c4ccc5[nH]ncc5c14)c32 [(XVIII)]      5.88

Go through the items and report each one's pEC50.
1. CCN(CC)CCCNc1ccc2ncn3c4ccc5[nH]ncc5c4c(=O)c1c23 [Compound (XV)]
2. CN1CCN(CCCNc2ccc3ncn4c5ccc6[nH]ncc6c5c(=O)c2c34)CC1 [(XVII)]
3. CCN(CC)c1ccc2ncn3c4ccc5[nH]ncc5c4c(=O)c1c23 [(VI)]
4. Cc1nc2cc3nc(-c4cccs4)cnc3cc2n1C [AGL-2043, reference compound]
5. CCN(CC)CCNc1ccc2ncn3c4ccc5[nH]ncc5c4c(=O)c1c23 [(VIII)]

[7.96, 8.10, 8.30, 7.42, 7.16]
